Biological target: histamine H2 (guinea-pig right atrium) (Cavia porcellus)
Construct: from tissue; host or cells: guinea-pig right atrium (isolated organ)
Experiment: Histamine H2-activity, guinea-pig right atrium
Measured endpoint: pEC50
Recall that pEC50 is obtained by taking minus log10 of the concentration measured in molar.

Any idea what pEC50 was measured for "N=C(NCCSC(c1ccccc1)c1ccccc1)NCCc1c[nH]cn1" ?
4.80

----------
Target: histamine H2 (guinea-pig right atrium) (Cavia porcellus, UniProt P47747)
Construct: from tissue; host or cells: guinea-pig right atrium (isolated organ)
Sequence (P47747 whole entry): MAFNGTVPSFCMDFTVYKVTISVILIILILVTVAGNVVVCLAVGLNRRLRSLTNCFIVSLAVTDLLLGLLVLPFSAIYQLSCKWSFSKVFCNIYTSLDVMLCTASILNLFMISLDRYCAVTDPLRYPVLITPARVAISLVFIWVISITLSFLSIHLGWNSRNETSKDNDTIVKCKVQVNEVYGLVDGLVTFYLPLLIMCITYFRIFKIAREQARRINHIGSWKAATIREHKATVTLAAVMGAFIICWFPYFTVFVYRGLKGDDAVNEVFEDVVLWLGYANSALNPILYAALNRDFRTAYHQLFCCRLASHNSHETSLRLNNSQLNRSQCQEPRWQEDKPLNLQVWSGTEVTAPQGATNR
Assay: Histamine H2-activity, guinea-pig right atrium
Conditions: guinea-pig right atrium; ±0,1; at least two experiments in duplicate
Each item that follows carries a reported pEC50.
Recall that pEC50 is obtained by taking minus log10 of the concentration measured in molar.

Guide cases for pEC50, answers given:
> print(dat)
                                   molecule  measured.endpoint  measured
1  NC(=NCCCc1c[nH]cn1)NCCSCc1ccccc1 [XII, reference compound]              pEC50      7.20
2  Cc1ccc(C(SCCNC(=N)NCCCc2c[nH]cn2)c2ccccc2)cc1 (centres unmarked)              pEC50      5.90
3  Cc1ccccc1C(SCCNC(=N)NCCCc1c[nH]cn1)c1ccccn1 (centres unmarked)              pEC50      5.90
4  N=C(NCCCc1c[nH]cn1)NCCC(c1ccccc1)c1ccccc1              pEC50      7.70
5  Cc1ccc(C(SCCNC(=N)NCCc2c[nH]cn2)c2ccccc2)cc1 (centres unmarked)              pEC50      4.00
6  N=C(NCCCc1c[nH]cn1)NCCOC(c1ccccc1)c1ccccc1              pEC50      5.50

Any idea what pEC50 was measured for "N=C(NCC=C(c1ccccc1)c1ccccc1)NCCCc1c[nH]cn1" ?
7.00

Any idea what pEC50 was measured for "N=C(NCCCc1c[nH]cn1)NCCN(Cc1ccccc1)c1ccccc1" ?
6.40

Any idea what pEC50 was measured for N=C(NCCCc1c[nH]cn1)NCCSC(c1ccccc1)c1ccc(F)cc1 (centres unmarked) ?
5.90

Any idea what pEC50 was measured for "N=C(NCCCc1c[nH]cn1)NCCSC(c1ccccc1)c1ccccc1" ?
6.80

Any idea what pEC50 was measured for "N=C(NCCc1c[nH]cn1)NCCC(c1ccccc1)c1ccccc1" ?
5.60

----------
Target: histamine H1 (guinea-pig trachea) (Cavia porcellus)
Construct: Single segments were cut from the trachea; from tissue; host or cells: guinea-pig trachea (isolated segments)
Sequence (P31389 whole entry): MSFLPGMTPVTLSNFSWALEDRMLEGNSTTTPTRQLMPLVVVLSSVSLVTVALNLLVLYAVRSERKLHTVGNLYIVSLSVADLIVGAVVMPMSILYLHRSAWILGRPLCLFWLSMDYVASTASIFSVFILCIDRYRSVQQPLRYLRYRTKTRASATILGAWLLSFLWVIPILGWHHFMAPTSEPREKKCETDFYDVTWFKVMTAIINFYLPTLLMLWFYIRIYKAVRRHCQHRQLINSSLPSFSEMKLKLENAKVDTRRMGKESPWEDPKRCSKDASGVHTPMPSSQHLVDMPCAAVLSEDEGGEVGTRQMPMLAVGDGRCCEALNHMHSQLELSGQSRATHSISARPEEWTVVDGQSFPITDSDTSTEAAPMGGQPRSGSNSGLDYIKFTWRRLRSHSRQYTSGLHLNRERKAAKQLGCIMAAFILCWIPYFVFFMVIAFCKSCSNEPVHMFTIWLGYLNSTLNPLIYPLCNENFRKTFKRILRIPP
Assay: Histamine H1-activity, guinea-pig trachea
Details: guinea-pig trachea; ± 0,2; mean of at least two experiments in quadruplicate
Each item that follows carries a reported Kb.
Answer format: numeric, nM implied, no suffix.

Guide cases for Kb, answers given:
> print(dat)
                                   molecule                             target.entity  measured
1  N=C(NCCCc1c[nH]cn1)NCCN(Cc1ccccc1)c1ccccc1  histamine H1 (guinea-pig trachea) (Cavia porcellus)      15.8
2  N=C(NCCCc1c[nH]cn1)NCCSC(c1ccccc1)c1ccc(F)cc1 (centres unmarked)  histamine H1 (guinea-pig trachea) (Cavia porcellus)       158
3  Cc1ccccc1C(SCCNC(=N)NCCCc1c[nH]cn1)c1ccccn1 (centres unmarked)  histamine H1 (guinea-pig trachea) (Cavia porcellus)      1000
4  N=C(NCCCc1c[nH]cn1)NCCOC(c1ccccc1)c1ccccc1  histamine H1 (guinea-pig trachea) (Cavia porcellus)      25.1

// moving on: another record for Kb
Any idea what Kb was measured for "N=C(NCC=C(c1ccccc1)c1ccccc1)NCCCc1c[nH]cn1" ?
631

----------
Biological target: histamine H2 (guinea-pig gastric fundus) (Cavia porcellus)
Construct: acid secretion of the isolated gastric fundus of the guinea-pig; from tissue; host or cells: guinea-pig gastric fundus (isolated organ)
Experiment: Histamine H2-activity, acid secretion of the isolated gastric fundus of the guinea-pig
Conditions: guinea-pig gastric fundus; ±0,2; at least two experiments in duplicate
Excerpt: The values for the H1 -activity given are the mean of at least two experiments in quadruplicate, while the values for the H2 -activity result from at least two experiments in duplicate. Guinea-pig gastric acid secretion (H2)
Measured endpoint: EC50 (nM)
Answer format: numeric, nM implied, no suffix.

> print(dat)
                                   compound  unit.text  measured
1  N=C(NCCCc1c[nH]cn1)NCCSC(c1ccccc1)c1ccc(F)cc1 (centres unmarked) [Compound VI]         nM      3160

Any idea what EC50 was measured for N=C(NCCc1c[nH]cn1)NCCC(c1ccccc1)c1ccccc1 [VIII] ?
10000

Any idea what EC50 was measured for NC(=NCCCc1c[nH]cn1)NCCSCc1ccccc1 [XII, reference compound] ?
25.1

Any idea what EC50 was measured for N=C(NCCCc1c[nH]cn1)NCCSC(c1ccccc1)c1ccccc1 [Compound I] ?
794

Any idea what EC50 was measured for N=C(NCCCc1c[nH]cn1)NCCN(Cc1ccccc1)c1ccccc1 [Compound XI] ?
316

Any idea what EC50 was measured for N=C(NCCCc1c[nH]cn1)NCCOC(c1ccccc1)c1ccccc1 [III] ?
1580

Any idea what EC50 was measured for Cc1ccc(C(SCCNC(=N)NCCc2c[nH]cn2)c2ccccc2)cc1 (centres unmarked) [Compound V] ?
100000

Any idea what EC50 was measured for N=C(NCC=C(c1ccccc1)c1ccccc1)NCCCc1c[nH]cn1 [Compound X] ?
2510

----------
Target: histamine H2 (guinea-pig gastric fundus) (Cavia porcellus, UniProt P47747)
Construct: acid secretion of the isolated gastric fundus of the guinea-pig; from tissue; host or cells: guinea-pig gastric fundus (isolated organ)
Sequence (P47747 whole entry): as the sequence (P47747 whole entry) above
Experiment: Histamine H2-activity, acid secretion of the isolated gastric fundus of the guinea-pig
Conditions: read-out: Histamine H2-activity, α (intrinsic activity); guinea-pig gastric fundus; at least two experiments in duplicate
Hi, to clarify the labels: Y covers Emax from 40% upward, N covers anything below 40%.

> print(dat)
                                   compound  class
1  N=C(NCCCc1c[nH]cn1)NCCSC(c1ccccc1)c1ccccc1 [Compound I]      Y
2  NC(=NCCCc1c[nH]cn1)NCCSCc1ccccc1 [XII, reference compound]      Y
3  Cc1ccc(C(SCCNC(=N)NCCc2c[nH]cn2)c2ccccc2)cc1 (centres unmarked) [Compound V]      N

Decide: Emax of N=C(NCCCc1c[nH]cn1)NCCN(Cc1ccccc1)c1ccccc1 [Compound XI] >= 40%?
Y

Decide: Emax of N=C(NCCc1c[nH]cn1)NCCC(c1ccccc1)c1ccccc1 [VIII] >= 40%?
N

Decide: Emax of N=C(NCC=C(c1ccccc1)c1ccccc1)NCCCc1c[nH]cn1 [Compound X] >= 40%?
Y

----------
Molecular target: histamine H2 (guinea-pig right atrium) (Cavia porcellus)
Construct: from tissue; host or cells: guinea-pig right atrium (isolated organ)
Test: Histamine H2-activity, guinea-pig right atrium
Conditions: read-out: Histamine H2-activity, α (intrinsic activity); guinea-pig right atrium; at least two experiments in duplicate
Measured endpoint: Emax (%)
Answer format: numeric, % implied, no suffix.

Guide cases for Emax, answers given:
> print(dat)
                                    molecule                             target.entity  unit.text  measured
 1  NC(=NCCCc1c[nH]cn1)NCCSCc1ccccc1 [XII, reference compound]  histamine H2 (guinea-pig right atrium) (Cavia porcellus)          %       100
 2  Cc1ccccc1C(SCCNC(=N)NCCCc1c[nH]cn1)c1ccccn1 (centres unmarked) [Compound VII]  histamine H2 (guinea-pig right atrium) (Cavia porcellus)          %        80
 3  N=C(NCCCc1c[nH]cn1)NCCSC(c1ccccc1)c1ccccc1 [Compound I]  histamine H2 (guinea-pig right atrium) (Cavia porcellus)          %       100
 4  Cc1ccc(C(SCCNC(=N)NCCCc2c[nH]cn2)c2ccccc2)cc1 (centres unmarked) [IV]  histamine H2 (guinea-pig right atrium) (Cavia porcellus)          %        80
 5  N=C(NCCCc1c[nH]cn1)NCCC(c1ccccc1)c1ccccc1 [Compound IX]  histamine H2 (guinea-pig right atrium) (Cavia porcellus)          %       100
 6  N=C(NCCCc1c[nH]cn1)NCCN(Cc1ccccc1)c1ccccc1 [Compound XI]  histamine H2 (guinea-pig right atrium) (Cavia porcellus)          %       100
 7  N=C(NCCCc1c[nH]cn1)NCCSC(c1ccccc1)c1ccc(F)cc1 (centres unmarked) [Compound VI]  histamine H2 (guinea-pig right atrium) (Cavia porcellus)          %        80
 8  Cc1ccc(C(SCCNC(=N)NCCc2c[nH]cn2)c2ccccc2)cc1 (centres unmarked) [Compound V]  histamine H2 (guinea-pig right atrium) (Cavia porcellus)          %         0
 9  N=C(NCC=C(c1ccccc1)c1ccccc1)NCCCc1c[nH]cn1 [Compound X]  histamine H2 (guinea-pig right atrium) (Cavia porcellus)          %       100
10  N=C(NCCCc1c[nH]cn1)NCCOC(c1ccccc1)c1ccccc1 [III]  histamine H2 (guinea-pig right atrium) (Cavia porcellus)          %        90

// moving on: another record for Emax
Any idea what Emax was measured for N=C(NCCc1c[nH]cn1)NCCC(c1ccccc1)c1ccccc1 [VIII] ?
90
